test: A549 cell viability effects, profiling panel, calcein-AM fluorescence, 48 h, basal (AID 1162); conditions: higher = more signal; further: test concentration not given here
Quick reference for z-score among some molecules

| MOLECULE | z-score |
| --- | --- |
| COC(=O)[C@@]1(Cc2ccc(OC)cc2)[C@H]2c3cc(C(=O)N(C)C)n(Cc4cccc5ccccc45)c3C[C@H]2CN1C(=O)c1ccccc1 | -1.62 |
| C=CCNC(=O)[C@H]1[C@@H]2C(=O)O[C@@H](c3ccccc3)[C@@H](c3ccccc3)N2[C@@H](c2ccccc2OCCO)[C@]12C(=O)Nc1ccc(C#CC3=CCCCC3)cc12 | -1.64 |
| C=CCN1C(=O)[C@@]2(O[C@@H](CCO)[C@H]([Si](C)(C)c3ccc(OC)cc3)[C@H]2C)c2cc(NC(=O)c3ccc(OC)cc3)ccc21 | -0.52 |
| CCCCN1CC=CC23O[C@@H]4/C=C\CCC(C)OC(=O)C4[C@H]2C(=O)N(CCCCCO)[C@@H]3C1=O (some centres undefined) | -0.143 |

Origin of measurements: PubChem BioAssay
